Tested on: CCRF-CEM leukemia
method.summary: NCI tumour cell line growth inhibition, 48 h; in the data active means GI50 below about 0.43 µM; inactive means the rest
Choose one outcome from this list and give only that: Yes (active), No (inactive)

Some solved cases for reference:
| compound | category |
| --- | --- |
| CO[C@H]1C(=O)[C@]2(C)[C@@H](OC)C[C@H]3OC[C@@]3(OC(C)=O)[C@H]2[C@H](OC(=O)c2ccccc2)[C@]2(O)C[C@H](OC(=O)[C@H](O)[C@@H](NC(=O)OC(C)(C)C)c3ccccc3)C(C)=C1C2(C)C | Yes |
| CN(C)C1C(=O)C(C(N)=O)=C(O)C2(O)C(=O)C3=C(O)c4c(O)cccc4C(C)(O)C3CC12.[Cl][Sb]([Cl])[Cl] (stereo not drawn) | No |

# input for lookup
Query: recorded result category for Nc1c(C(=O)Nc2ccccc2)sc2nc3c(cc12)C(=O)CCC3 in this test
Yes

###

Test system: SNB-75 CNS
method.summary: NCI tumour cell line growth inhibition, 48 h
measurement.label: GI50

Before answering, review these 5 worked examples.
| compound | result |
| --- | --- |
| O=C1c2cccc3c(N4CCOCC4)ccc(c23)C(=O)N1CCN1CCN(CCCCCN2CCN(CCN3C(=O)c4cccc5c(N6CCOCC6)ccc(c45)C3=O)CC2)CC1 | > 100 µM |
| O=C(Nc1ccc(-n2cc(-c3ccncc3)c(-c3ccc(Cl)c(O)c3)n2)cc1)c1cc(C(F)(F)F)cc(C(F)(F)F)c1 | 2.82 µM |
| O=C(Nc1ccc(-n2cc(-c3ccncc3)c(-c3ccc(O)c(Cl)c3)n2)cc1)Nc1cc(C(F)(F)F)cc(C(F)(F)F)c1 | 2.07 µM |
| Cc1ccc2ccc3c4ccccc4ccc3c2c1 | 39.3 µM |
| OCc1ccc(-c2ccc(-c3ccc(CO)o3)o2)o1 | 23.2 µM |

Give GI50 for each of the items listed below.
1. OCC1OC(OC2(CO)OC(CO)C(O)C2O)C(O)C(O)C1O (stereo not drawn)
2. CCOC(=O)[C@@H](C)C[C@H](Cc1ccccc1)NC(=O)c1csc([C@@H](C[C@H](C(C)C)N(C)C(=O)CNC(=O)[C@H]2CCCCN2C)OC(C)=O)n1
3. Nc1nc(Cl)c2ncn(Cc3ccc(C45CC6CC(CC(C6)C4)C5)c(OCc4cc(F)c(F)cc4F)c3)c2n1

1: > 100 µM; 2: 0.534 µM; 3: 27.5 µM

###

Hi there, I'd appreciate the recorded TGI for every entry that follows.
Test system: IGROV1 ovarian
method.summary: NCI tumour cell line growth inhibition, 48 h
One number for each entry, in µM.

Before answering, review these 3 worked examples.
| structure | unit.label | TGI |
| --- | --- | --- |
| O=C(CCCCN1CCN(CCCCC(=O)Nc2ccccc2C#C/C=C\C#Cc2ccccc2C(F)(F)F)CC1)Nc1ccccc1C#C/C=C\C#Cc1ccccc1C(F)(F)F | µM | 26.2 |
| O=c1[nH]c2ccccc2cc1-c1nnc(Cc2ccccc2)o1 | µM | 27.1 |
| C=C1C(=O)O[C@@H]2C[C@@]3(C)[C@H](O)CCC(=C)[C@@H]3C[C@H]12 | µM | 45.2 |

Let's switch to this molecule now.
Given the entry CC(C)(C)O/N=C/c1cc(NC(=S)c2ccccc2)ccc1Cl , report its measured TGI.
27.1

###

System: HS 578T breast
method.summary: NCI tumour cell line growth inhibition, 48 h
Hi there, I'd appreciate the recorded TGI for every entry that follows.

| compound | TGI |
| --- | --- |
| CCc1ccc(Oc2c(-c3ccc(OCc4ccc(Cl)cc4)cc3O)nn(C)c2C(F)(F)F)cc1 | 4.92 µM |
| CCCC(O)[C@@]1(CC)CC(C)C(O)(C2(C)C[C@H](C)[C@@H](C(CC)C(=O)C(C)[C@@H](O)[C@H](C)C3OC(O)(C(CC)C(=O)O)[C@@H](C)C(O)C3CC)O2)O1 (some centres not stated) | 2.99 µM |
| Cn1c2c(c3c(=O)[nH]ncc31)Cc1ccccc1-2 | > 100 µM |
| O=C(O)CCCc1ccc2c(c1)C(C(=O)O)CC2 (configuration not stated) | > 100 µM |
| O=C(Nc1cccc2ccccc12)c1cc2ccccc2oc1=O | > 100 µM |
| Cc1cc2nc(N3C(=O)/C(=C/Cc4ccco4)N=C3c3ccccc3)sc2cc1C | > 100 µM |

Give TGI for each of the items listed below.
1. CC(C)OC(=O)C(NC(=O)C(CC(=O)OCc1ccccc1)NC(=O)OCc1ccccc1)NC(=O)C1C(C)(C)CCC1(C)C (configuration not stated)
2. [N-]=[N+]=CC(=O)C1CCN(c2ccccc2)C1=O (configuration not stated)

1: 23.5 µM; 2: > 10 µM

Give TGI for each of the items listed below.
1. CC(C)(C)C(=O)c1c(O)c2ccccc2c2ccccc2c1=O
2. C/C(=N\NC(=S)N1CCC1)c1ccccn1

1. > 100 µM
2. > 100 µM

Give TGI for each of the items listed below.
1. Cc1ccc(C(=O)Nc2ccc(CP(=O)(O)O)cc2CP(=O)(O)O)cc1N
2. C/C(=N/NC(=S)Nc1ccc(C)cc1)c1ccccn1
3. Nc1c(C(=O)Nc2ccccc2)sc2nc3c(cc12)C(=O)CCC3
4. COCc1cc2c(s1)C(=O)C1=C(C2=O)C2(C=C(Br)C(=O)C(Br)=C2)CCN1
5. O=[N+]([O-])/C=C/c1cc(Cl)c(/C=C/[N+](=O)[O-])cc1Cl

1: > 100 µM; 2: 17 µM; 3: > 72.4 µM; 4: 30.6 µM; 5: 8.25 µM

###

Tested on: TK-10 renal
method.summary: NCI tumour cell line growth inhibition, 48 h; in the data active means GI50 below about 0.43 µM; inactive means the rest
Choose one outcome from this list and give only that: active, inactive

| compound | target.of.assay | category |
| --- | --- | --- |
| O=c1[nH]c2ccccc2cc1-c1nnc(Cc2ccccc2)o1 | TK-10 renal | inactive |
| O=C(CCCCN1CCN(CCCCC(=O)Nc2ccccc2C#C/C=C\C#Cc2ccccc2C(F)(F)F)CC1)Nc1ccccc1C#C/C=C\C#Cc1ccccc1C(F)(F)F | TK-10 renal | inactive |
| OCCNc1nc2ccccc2c2[nH]c3ccccc3c12 | TK-10 renal | inactive |
| O=C(CI)NC(=O)NC(=O)NCc1ccccc1 | TK-10 renal | inactive |
| O=C(O)c1ccccc1NCn1nc(-c2ccccc2O)oc1=S | TK-10 renal | inactive |

Query: recorded result category for CCCCCCCCCCCCCC(=O)O[C@H]1CC[C@H](NC(=O)[C@H](OC)[C@H](O)[C@@H](O)[C@H](O)/C=C/C(C)C)C(=O)N(C)C1 in this test
active

Thanks! And O=C(Nc1nc2ccc(S(=O)(=O)Nc3ccc(C4(C(F)(F)F)CC4)cc3)cc2[nH]1)c1cnccn1 ?
inactive

###

System: SR leukemia
method.summary: NCI tumour cell line growth inhibition, 48 h
measurement.label: TGI

Before answering, review these 8 worked examples.
| molecule | TGI |
| --- | --- |
| OCCN1CCN(c2nc(N3CCCC3)c3nc(Cl)c(NCc4ccccc4)nc3n2)CC1 | 15.2 µM |
| N#CN1CC[C@H](C(=O)Nc2ncc(-c3ccccc3)s2)C1 | 1.29 µM |
| O=C([O-])c1ccc([I+]c2ccccc2)cc1 | > 100 µM |
| CCC12CCC[C@@]13C=C[C@H](O3)C(C)(C)C2=O (some centres undefined) | > 100 µM |
| CCCCCCCCCCCCCC(=O)O[C@H]1CC[C@H](NC(=O)[C@H](OC)[C@H](O)[C@@H](O)[C@H](O)/C=C/C(C)C)C(=O)N(C)C1 | 2.46 µM |
| CN(C)CCCOc1ccc(NC2=C(Cl)C(=O)C(Nc3ccc(OCCCN(C)C)cc3)=C(Cl)C2=O)cc1 | 3.25 µM |
| O=C(Nc1ccc(-n2cc(-c3ccncc3)c(-c3ccc(O)c(Cl)c3)n2)cc1)Nc1cc(C(F)(F)F)cc(C(F)(F)F)c1 | 31.3 µM |
| CCCCCCCCCCCCCCCCNc1nc(=O)n(C2OC(C)C(O)C2O)cc1F (centres undefined) | > 100 µM |

Let's switch to this molecule now.
Given the entry O=c1[nH]nc(Nc2ccc(Cl)cc2)c2nnn(C3CCCCC3)c12 , report its measured TGI.
43.3 µM

###

Tested on: A549 NSCLC
method.summary: NCI tumour cell line growth inhibition, 48 h
measurement.label: TGI

Before answering, review these 3 worked examples.
| compound | TGI |
| --- | --- |
| COC(=O)[C@]12CC[C@@H](C)[C@H](C)[C@@H]1C1=CC[C@@H]3[C@@]4(C)C(C=O)=C[C@@](C)(COS(C)(=O)=O)C4=CC[C@@]3(C)[C@]1(C)CC2 | 1.92 µM |
| N=C(N)n1cc(/C=N/N=C(N)N)cn1 | > 100 µM |
| COC(=O)CCC(C)[C@H]1CCC2C3CC[C@@H]4CC5(CC[C@]4(C)C3C[C@H](OC(C)=O)[C@@]21C)OOC1(CCCCC1)OO5 (some centres undefined) | > 100 µM |

Let's switch to this compound now.
Given the entry CCCCCCCCCC1CC(=O)OC23CCCC(=O)C12O3 (centres undefined) , report its measured TGI.
> 100 µM
